# credit: patent US6642217B2

Test system: Microsporum canis
Assay explanation: Direct addition method, solid compound in Sabouraud dextrose agar
Assay type: cell-based
Parameters: key: +++: Maximum Fungal Growth; ++: Moderate Fungal Growth; +: Minimum Fungal Growth; +/−: Very little Fungal Growth; −: No Fungal Growth
Condition label: 4 mg/mL of agar; 12th day after inoculation
Quantity kind: Fungal growth

Compound	Quantity kind	Result
C=C(C)C1CCC2(COC(=O)CCC(=O)O)CC[C@@]3(C)C(CCC4[C@@]5(C)CCC(O)C(C)(C)C5CC[C@]43C)C12 (some centres unmarked) [Betulin-28-succinate]	Fungal growth	+
COC1=CC(=O)C[C@@H](C)[C@]12Oc1c(Cl)c(OC)cc(OC)c1C2=O [Griseofulvin, reference compound]	Fungal growth	−
CC1(C)CCC23CC[C@@]4(C)C(CCC5[C@@]6(C)CCC(OC(=O)CCC(=O)O)C(C)(C)C6CC[C@]54C)C2C1OC3 (some centres unmarked) [Allobetulin-3-succinate]	Fungal growth	+
C=C(C)[C@@H]1CC[C@]2(COC(=O)/C=C\C(=O)O)CC[C@]3(C)[C@H](CC[C@@H]4[C@@]5(C)CC[C@H](OC(=O)/C=C\C(=O)O)C(C)(C)[C@@H]5CC[C@]43C)[C@@H]12 [Betulin-3,28-dimaleate]	Fungal growth	+

Query: Find the measured Fungal growth: item C=C(C)C1CCC2(COC(=O)CCC(=O)O)CC[C@@]3(C)C(CCC4[C@@]5(C)CCC(OC(=O)CCC(=O)O)C(C)(C)C5CC[C@]43C)C12 (some centres unmarked) [Betulin-3,28-disuccinate] , target or system Microsporum canis.
Reply: −

----------
Tested on: Microsporum audouinni
Assay explanation: Agar dilution method, growth on Sabouraud dextrose agar slants
Assay type: cell-based, Microsporum audouinii
Design: key: +++: Maximum Fungal Growth; ++: Moderate Fungal Growth; +: Minimum Fungal Growth; +/−: Very little Fungal Growth; −: No Fungal Growth
Condition label: 1000 μg/ml; 12th day after inoculation

Compound	Fungal growth
C=C(C)C1CCC2(COC(=O)CCC(=O)O)CC[C@@]3(C)C(CCC4[C@@]5(C)CCC(OC(=O)CCC(=O)O)C(C)(C)C5CC[C@]43C)C12 (stereo partly drawn) [Betulin-3,28-disuccinate]	−
COC1=CC(=O)C[C@@H](C)[C@]12Oc1c(Cl)c(OC)cc(OC)c1C2=O [Griseofulvin, reference compound]	−
C=C(C)C1CCC2(CO)CCC3(C)C(CCC4C5(C)CCC(OC(=O)C=CC(=O)O)C(C)(C)C5CCC43C)C12 (stereo not drawn) [Betulin-3-maleate]	−

----------
Tested on: Epidermophyton floccosum
Assay explanation: Agar dilution method, growth on Sabouraud dextrose agar slants
Format: cell-based
Set-up: key: +++: Maximum Fungal Growth; ++: Moderate Fungal Growth; +: Minimum Fungal Growth; +/−: Very little Fungal Growth; −: No Fungal Growth
Condition label: 125 μg/ml; 12th day after inoculation
Quantity kind: Fungal growth

Molecule	Quantity kind	Result
C=C(C)C1CCC2(COC(=O)CCC(=O)O)CC[C@@]3(C)C(CCC4[C@@]5(C)CCC(O)C(C)(C)C5CC[C@]43C)C12 (stereo partly drawn) [Betulin-28-succinate]	Fungal growth	++
C=C(C)C1CCC2(COC(=O)CCC(=O)O)CC[C@@]3(C)C(CCC4[C@@]5(C)CCC(OC(=O)CCC(=O)O)C(C)(C)C5CC[C@]43C)C12 (stereo partly drawn) [Betulin-3,28-disuccinate]	Fungal growth	++
C=C(C)[C@@H]1CC[C@]2(COC(=O)c3ccccc3C(=O)O)CC[C@]3(C)[C@H](CC[C@@H]4[C@@]5(C)CC[C@H](OC(=O)c6ccccc6C(=O)O)C(C)(C)[C@@H]5CC[C@]43C)[C@@H]12 [Betulin-3,28-diphthalate]	Fungal growth	++
